Test: NCATS anti-infectives library activity on HEK293 viability as a counter-qHTS vs the C. elegans viability qHTS (AID 1745854);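 further: HEK293 cells exposed to compounds for 24 hr before the viability read; on the % scale 0 is the no-effect control and ±100 the full control effect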
Settings: HEK293 viability counter-screen; series mostly up to 41.8 µM
Inconclusive results are not listed. The source made the active and inactive calls. The call rests on the fitted dose curve; in most records, active means well fitted cell-killing curve with a large enough effect; inconclusive means small, poorly fitted or top-dose-only effect; inactive means flat fitted curve, though single readings scatter.
Observable: outcome

* C[C@@H](O[C@H]1OCCN(Cc2n[nH]c(=O)[nH]2)[C@H]1c1ccc(F)cc1)c1cc(C(F)(F)F)cc(C(F)(F)F)c1 | inactive
* CC[C@@H]([C@H](C)O)n1ncn(-c2ccc(N3CCN(c4ccc(OC[C@@H]5CO[C@@](Cn6cncn6)(c6ccc(F)cc6F)C5)cc4)CC3)cc2)c1=O | inactive
* Cc1cc(CCCOc2c(C)cc(-c3noc(C(F)(F)F)n3)cc2C)on1 | inactive
* Nc1nc(=O)n([C@@H]2O[C@H](CO)[C@@H](O)[C@@H]2F)cc1I | inactive

Next molecule, please.
Entry Clc1ccc2c(c1)N=C(N1CCNCC1)c1ccccc1N2 : reported outcome = ?
inactive

====

Assay: Drug repurposing screens with cells derived from glioblastoma tumor samples (AID 1345199); further: on the % scale 0 is the no-effect control and ±100 the full control effect; nearly all actives have a fitted effect of over 40% in size
Details: GBM patient neurospheres viability, ATP luminescence, 48 h; at 91.6 µM (top of the series); tumour line D
Records with an inconclusive call do not appear.
Rule: activity, negative = cell killing below -20% gives yes (1), anything at or above gives no (0).

- O=C(NO)c1ccccc1: yes (1)
- COC(=O)c1c(Cl)c(Cl)c(C(=O)OC)c(Cl)c1Cl: no (0)
- C1=CC2C3C=CC(C3)C2C1 (configuration not stated): no (0)

Decide: activity, negative = cell killing of c1ccc2occc2c1 strictly below -20%?
no (0)

Another compound to check: CC(C)C(C)(C)C(C)(C)C(C)(C)S
no (0)

Another compound to check: CN1C(=O)c2ccccc2C1=O
yes (1)

Another compound to check: CCCCC(CC)COC(=O)c1ccccc1C(=O)O (configuration not stated)
no (0)

====

Tested on: CASKI
Experiment: Primary qHTS to identify gynecologic anti-cancer compounds using libraries of approved drugs and bioactive compounds (AID 1345084); further: on the % scale 0 is the no-effect control and ±100 the full control effect; nearly all actives have a fitted effect of over 55% in size
Settings: Gynecologic cancer cell panel viability, ATPlite luminescence, 48 h; series mostly up to 57.5 µM
Inconclusive results are not listed. The source made the active and inactive calls. The call rests on the fitted dose curve; in most records, active means well fitted cell-killing curve with a large enough effect; inconclusive means small, poorly fitted or top-dose-only effect, or effect the other way; inactive means flat fitted curve, though single readings scatter.
Observable: outcome

Below, each entry is followed by its recorded outcome result.
* COC(=O)CCCCC(CCSS/C(CCO)=C(\C)N(C=O)Cc1cnc(C)nc1N)SC(C)=O (stereo unspecified) | inactive
* CCOc1c(N2CCOCC2)cnn(C)c1=O | inactive
* CCC1(c2cnc[nH]2)Cc2ccccc2C1 | inactive
* O=C1Nc2cc(Cl)ccc2Oc2ccccc21 | inactive
* O=C(CCCCC(=O)Nc1c(I)cc(I)c(C(=O)O)c1I)Nc1c(I)cc(I)c(C(=O)O)c1I | inactive

Next molecule, please.
Entry CN1CCC(Nc2ncc3ncnc(Nc4ccc(F)c(Cl)c4)c3n2)CC1 : reported outcome = ?
inactive

====

Experiment: qHTS of pediatric cancer cell lines to identify multiple opportunities for drug repurposing: Confirmatory screen for SK-N-SH cells (AID 1347129);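 further: cells exposed to compound for 48 h before viability read; nearly all actives have a fitted effect of over 60% in size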; further: potency means the concentration at half of the fitted maximal effect
Conditions: SK-N-SH neuroblastoma cell viability; series mostly up to 46.1 µM
Inconclusive results are not listed. Calls of active or inactive are those of the source. The call rests on the fitted dose curve; in most records, active means well fitted cell-killing curve with a large enough effect; inconclusive means small, poorly fitted or top-dose-only effect; inactive means flat fitted curve, though single readings scatter.
Observable: Potency

• Nc1ccc2cc3ccc(N)cc3nc2c1 = 5.26 µM (active)
• CCCCC(CC)CNC(=O)CC(C)OC(=O)CCC(=O)O (stereo not given) = inactive
• CCN(CC)CC(=O)OCC(=O)[C@@]1(O)CC[C@H]2[C@@H]3CCC4=CC(=O)CC[C@]4(C)[C@H]3[C@@H](O)C[C@@]21C = inactive
• CCC1(c2cnc[nH]2)Cc2ccccc2C1 = inactive

Entry CC[C@@]1(O)C(=O)OCc2c1cc1n(c2=O)Cc2c-1nc1ccccc1c2/C=N/OC(C)(C)C : reported Potency = ?
1.87 µM (active)

====

Test: qHTS Assay for Identifying Gametocytocidal Compounds (AID 743244);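 further: on the % scale 0 is the no-effect control and ±100 the full control effect; actives lower the fluorescent signal which means gametocytes are killed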
Conditions: P. falciparum 3D7 stage III-V gametocytes, alamarBlue, 72 h; active compounds read low
Results filed as inconclusive are left out.
Here, each record is paired with measured max response data.
Numeric answer only, unit % assumed.

Below, each entry is followed by its recorded max response result.
* Nc1ncnc2nc[nH]c12 | 3.66
* O=C(O)CNC(=O)CNC(=O)CNC(=O)CSC(=O)c1ccccc1 | 0.93
* O=C(NO)c1ccccc1 | 14.9

Next molecule, please.
Entry O=C(CO)[C@@H](O)[C@H](O)[C@@H](O)CO : reported max response = ?
-0.255

====

Here, each record is paired with measured Potency data.
Test system: CP191
Assay: qHTS profiling for inhibitors of Plasmodium falciparum proliferation (AID 504749); further: potency means the concentration at half of the fitted maximal effect; nearly all actives have a fitted effect of over 60% in size
Conditions: P. falciparum in erythrocytes, SYBR Green DNA, 72 h; series mostly up to 28.7 µM
Protocol: NIH National Institute of Allergy and Infectious Diseases [NIAID] NIH Chemical Genomics Center [NCGC] […] Because mature erythrocytes lack DNA, only Plasmodium-derived DNA is detected. NCGC Assay Protocol Summary: The SYBR Green viability assay was adapted from a method described previously (Plouffe et al., 2008). […] The following morning, fluorescence intensity at 485(14) nm excitation and 535(25) nm emission wavelengths was measured on an EnVision (Perkin Elmer) plate reader. […]
Records with an inconclusive call do not appear. Active and inactive are the calls of the source. The call rests on the fitted dose curve; in most records, active means well fitted inhibition curve with a large enough effect; inconclusive means small, poorly fitted or top-dose-only effect; inactive means flat fitted curve, though single readings scatter.

Entry O=C(Nc1ccc(Cl)cc1)Nc1ccc(Cl)c(Cl)c1 : reported Potency = ?
2.82 µM (active)

Another molecule to check: Nc1c2ccccc2nc2ccccc12
11.2 µM (active)

Another molecule to check: CC(NCCC(c1ccccc1)c1ccccc1)c1ccccc1 (centres undefined)
10 µM (active)

Another molecule to check: CCCCCCCCCCCCCCCC[N+](C)(C)Cc1ccccc1
1 µM (active)

====

Assay: qHTS of pediatric cancer cell lines to identify multiple opportunities for drug repurposing: Primary screen for TC32 cells (AID 1347089); further: on the % scale 0 is the no-effect control and ±100 the full control effect; nearly all actives have a fitted effect of over 60% in size
Details: TC32 Ewing sarcoma viability, CellTiter-Glo luminescence, 48 h; series mostly up to 45.8 µM
Records with an inconclusive call do not appear. Activity calls are given as the source filed them. Calls follow the shape of the dose curve; as a rule, active = well fitted cell-killing curve with a large enough effect; inconclusive = small, poorly fitted or top-dose-only effect; inactive = flat fitted curve, though single readings scatter.
Please answer using one outcome listed in active, inactive

Completed entries (count: 3):
• COC(=O)CCCCC(CCSS/C(CCO)=C(\C)N(C=O)Cc1cnc(C)nc1N)SC(C)=O (stereo not given) = inactive
• O=C(NO)c1ccccc1 = inactive
• CCOC(=O)C(=O)CCCCCCl = inactive

Proceed to the following item.
Could you please tell me the result logged for CC(C)(c1ccc(O)cc1)c1ccc(O)cc1 in this assay?
inactive

====

Test: qHTS of pediatric cancer cell lines to identify multiple opportunities for drug repurposing: Primary screen for BT-12 cells (AID 1347101);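 further: plate controls were DMSO for no effect and bortezomib positive control for full effect; nearly all actives have a fitted effect of over 25% in size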
Conditions: BT-12 viability, CellTiter-Glo luminescence, 48 h; series mostly up to 57.3 µM
Results filed as inconclusive are left out. Active and inactive are the calls of the source. Calls come from the whole dose curve; as a rule, active = well fitted cell-killing curve with a large enough effect; inconclusive = small, poorly fitted or top-dose-only effect; inactive = flat fitted curve, though single readings scatter.
Please answer using one outcome listed in active, inactive

• C[C@]12CCC(=O)C=C1CC[C@@H]1[C@@H]2[C@@H](O)C[C@@]2(C)[C@H]1CC[C@]2(O)C(=O)COC(=O)CCC(=O)O = inactive
• O=C(O)CCCC[C@@H]1SC[C@@H]2NC(=O)N[C@@H]21 = inactive
• CCCC(=O)c1cc(O)c(O)cc1O = inactive
• O=C(O)c1ccc(OCCN2CCCCC2)cc1 = inactive
• CC(C)CCCC(C)NCCC(C)C (stereo not given) = inactive

Could you please tell me the result logged for Cc1cccc(C)c1NC(=O)c1cc(S(N)(=O)=O)c(Cl)cc1O in this assay?
inactive

Another compound to check: CN(CC1(C)CCCO1)S(=O)(=O)c1ccc(Cl)c(S(N)(=O)=O)c1 (stereo not given)
inactive

Another compound to check: CN(C)CCN(Cc1ccsc1)c1ccccn1
inactive

Another compound to check: Cc1ccccc1N1CCN(CCc2nnc3n2CCCC3)CC1
inactive

====

Experiment: A High-Content qHTS Against Drug Library for the Identification of Small Molecules that Inhibit DYT1 Early Onset Primary Dystonia-Associated Cell Pathology (AID 1645839)
Settings: HEK293 Flp-In EGFP-delE TorsinA, punctate imaging, 48 h; series mostly up to 46.1 µM
Results filed as inconclusive are left out. Activity calls are given as the source filed them. Calls come from the whole dose curve.
Observable: outcome

* CC(C)C[C@H](NC(=O)CNC(=O)[C@H](Cc1ccc(O)cc1)NC(=O)[C@H](CO)NC(=O)[C@H](Cc1c[nH]c2ccccc12)NC(=O)[C@H](Cc1cnc[nH]1)NC(=O)[C@@H]1CCC(=O)N1)C(=O)N[C@@H](CCCN=C(N)N)C(=O)N1CCC[C@H]1C(=O)NCC(N)=O (stereo in doubt) | inactive
* CC1(C)O[C@@H]2C[C@H]3[C@@H]4C[C@H](F)C5=CC(=O)C=C[C@]5(C)[C@@]4(F)[C@@H](O)C[C@]3(C)[C@]2(C(=O)CO)O1 | inactive

====

Test system: HEK293
Test: Cytotoxic Profiling of Annotated Libraries Using Quantitative High-Throughput Screening (AID 1296008); further: on the % scale 0 is the no-effect control and ±100 the full control effect; nearly all actives have a fitted effect of over 60% in size
Conditions: Five cell lines viability, CellTiter-Glo ATP luminescence, 48-72 h; active compounds read low
Records with an inconclusive call do not appear. The source made the active and inactive calls. Calls follow the shape of the dose curve; as a rule, active = well fitted inhibition curve with a large enough effect; inconclusive = small, poorly fitted or top-dose-only effect; inactive = flat fitted curve, though single readings scatter. Where a SMILES comes first, the peptide text is derived from it. [ ]: non-standard residue; d: D form. pGlu = O=C1CC[C@@H](C(=O)O)N1
Observable: max response

Below, each entry is followed by its recorded max response result.
* CCCC(=O)O[C@]1(C(=O)COC(=O)CC)CC[C@H]2[C@@H]3CCC4=CC(=O)CC[C@]4(C)[C@H]3[C@@H](O)C[C@@]21C | 3.26% (inactive)
* CN1Cc2cc(C(=O)N3CCC(C4CCNCC4)CC3)ccc2NC(CC(=O)O)C1=O (stereo not given) | -6.55% (inactive)
* Cc1onc(-c2c(Cl)cccc2Cl)c1C(=O)Cl | -4.58% (inactive)
* CC1(C)O[C@@H]2C[C@H]3[C@@H]4C[C@H](F)C5=CC(=O)C=C[C@]5(C)[C@@]4(F)[C@@H](O)C[C@]3(C)[C@]2(C(=O)CO)O1 | 1.46% (inactive)
* CC(=O)/C=C/C=C1/C2CCC(C2)C1(C)C (stereo not given) | -13.1% (inactive)
* COc1ccccc1N1CCN(CC(O)COc2cc(OC)c(OC)c(OC)c2)CC1 (stereo not given) | 2.4% (inactive)

Entry C/C(=N\O)[C@@H](C)NCC(C)(C)CN[C@H](C)/C(C)=N/O : reported max response = ?
-22.3% (inactive)

Another compound to check: CC(C)C(=O)Nc1cccc(C(F)(F)F)c1
3.73% (inactive)

Another compound to check: C[C@@H](C1=C(CCN(C)C)Cc2ccccc21)c1ccccn1
-25.1% (inactive)

Another compound to check: O=[N+]([O-])c1cncn1CCN1CCOCC1
3.5% (inactive)

Another compound to check: CC(=O)O[C@@H]1C(=O)O[C@@H]2[C@H]1OC(=O)[C@@H]2OC(C)=O
-3.32% (inactive)

Another compound to check: CCNC(=O)[C@@H]1CCCN1C(=O)[C@H](CCCN=C(N)N)NC(=O)[C@H](CC(C)C)NC(=O)CNC(=O)[C@H](Cc1ccc(O)cc1)NC(=O)[C@H](CO)NC(=O)[C@H](Cc1c[nH]c2ccccc12)NC(=O)[C@H](Cc1cnc[nH]1)NC(=O)[C@@H]1CCC(=O)N1 ([pGlu]HWSYGLRP-NHEt)
-8.7% (inactive)

Another compound to check: CCCOc1ccc2c(c1)CC[C@@H]1[C@@H]2CC[C@]2(C)C(OC)CC[C@@H]12 (stereo not given in full)
-6.37% (inactive)
